Measured zone of inhibition at 10000 µg/disc by item
Tested on: Escherichia coli
measurement-protocol: Agar diffusion test Escherichia coli
Assay type: cell-based
experimental-setup: Escherichia coli; 10 mm disk with 10 mg test substance, 37° C., 24 hours
Protocol: […] The antibacterial potential of compounds is examined by the Kirby-Bauer disc diffusion test using Müller-Hington agar. […] The plates are incubated at 37° C. for 24 hours and the zone of inhibition is recorded. […]
test-readout: zone of inhibition at 10000 µg/disc

[[record]]
molecule = "NS(=O)(=O)CCO"
result = "< 10 mm"

[[record]]
molecule = "CN1COCCS1(=O)=O"
result = "< 10 mm"

[[record]]
molecule = "CC1NS(=O)(=O)CCO1 (centres unmarked)"
result = "< 10 mm"

[[record]]
molecule = "CC(=O)N1COCCS1(=O)=O"
result = "18.5 mm"

[[record]]
molecule = "CC1OCCS(=O)(=O)N1C (centres unmarked)"
result = "< 10 mm"

